System: PC49
test: qHTS profiling for inhibitors of Plasmodium falciparum proliferation (AID 504749); also: nearly all actives have a fitted effect of over 60% in size
measurement-context: P. falciparum in erythrocytes, SYBR Green DNA, 72 h; series mostly up to 12.8 µM
Records with an inconclusive call do not appear. Active and inactive are the calls of the source. Calls follow the shape of the dose curve; as a rule, active = well fitted inhibition curve with a large enough effect; inconclusive = small, poorly fitted or top-dose-only effect; inactive = flat fitted curve, though single readings scatter.
readout-type: outcome

>>> result("O=C(OC[C@@H](O)CO)c1ccccc1Nc1ccnc2cc(Cl)ccc12")
"inactive"
>>> result("NC(=O)c1ccc[n+]([C@@H]2O[C@H](COP(=O)([O-])OP(=O)(O)OC[C@H]3O[C@@H](n4cnc5c(N)ncnc54)[C@@H](O)[C@@H]3O)[C@@H](O)[C@@H]2O)c1")
"inactive"
>>> result("C[C@]1(c2ccccc2)OC(C(=O)O)=CC1=O")
"inactive"

====

Tested on: CP305
test: qHTS profiling for inhibitors of Plasmodium falciparum proliferation (AID 504749); also: nearly all actives have a fitted effect of over 60% in size; also: potency is read from the fitted curve at half-maximal effect
measurement-context: P. falciparum in erythrocytes, SYBR Green DNA, 72 h; series mostly up to 12.8 µM
Records with an inconclusive call do not appear. Activity calls are given as the source filed them. Calls follow the shape of the dose curve; as a rule, active = well fitted inhibition curve with a large enough effect; inconclusive = small, poorly fitted or top-dose-only effect; inactive = flat fitted curve, though single readings scatter.
readout-type: Potency

>>> result("CCC1OC(=O)C(C)[C@@H](O[C@H]2C[C@@](C)(OC)C(O)C(C)O2)C(C)[C@@H](O[C@@H]2OC(C)CC(N(C)C)C2O)[C@@](C)(O)CC(C)C(=O)[C@@H](C)C(O)[C@]1(C)O (stereo partly drawn)")
"inactive"
>>> result("CCC[C@@H]1O[C@@H]2C[C@@H]3[C@H]4CCC5=CC(=O)C=C[C@@]5(C)[C@H]4[C@H](O)C[C@@]3(C)[C@@]2(C(=O)CO)O1")
"inactive"
>>> result("C=CCOc1ccccc1OC[C@H](O)CNC(C)C")
"inactive"
>>> result("CC(=O)OC1CCC2C3CCc4cc(O)ccc4C3CCC12C (stereo not drawn)")
"inactive"
>>> result("C=Cc1c(C)/c2[n-]/c1=C\\c1[n-]c(c(CC)c1C)/C=c1\\[n-]c3c(c1C)C(=O)C(C(=O)[O-])C=3c1[n-]c(c(C)c1CCC(=O)[O-])\\C=2.[Cu].[Na+].[Na+] (stereo not drawn)")
"inactive"
>>> result("COc1ccc(CC(N)C(=O)NC2C(CO)OC(n3cnc4c(N(C)C)ncnc43)C2O)cc1 (stereo not drawn)")
"1200 nM (active)"
>>> result("CCCCCCCCCc1ccc(OCCOCCOCCOCCOCCOCCOCCOCCOCCO)cc1")
"inactive"
>>> result("CCc1c(C)[nH]c2c1C(=O)[C@H](CN1CCOCC1)CC2")
"inactive"

====

tested-target: Cytochrome P450 2C9 (Homo sapiens) (UniProt P11712)
Sequence (P11712 whole entry, looked up): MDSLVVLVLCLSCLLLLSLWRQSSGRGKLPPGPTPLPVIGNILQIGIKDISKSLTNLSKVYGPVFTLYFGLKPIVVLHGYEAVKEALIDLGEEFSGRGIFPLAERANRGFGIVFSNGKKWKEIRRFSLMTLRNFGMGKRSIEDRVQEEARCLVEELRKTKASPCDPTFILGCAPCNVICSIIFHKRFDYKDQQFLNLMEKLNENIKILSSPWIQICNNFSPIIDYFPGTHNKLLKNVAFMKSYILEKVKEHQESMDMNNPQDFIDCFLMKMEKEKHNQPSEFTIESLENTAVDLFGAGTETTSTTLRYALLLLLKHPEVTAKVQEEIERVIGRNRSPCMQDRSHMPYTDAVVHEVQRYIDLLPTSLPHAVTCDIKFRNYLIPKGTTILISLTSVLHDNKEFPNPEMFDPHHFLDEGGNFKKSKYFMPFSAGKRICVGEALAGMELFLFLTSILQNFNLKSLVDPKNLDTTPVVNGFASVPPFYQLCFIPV
test: Cytochrome P450 family 2 subfamily C member 9 (CYP2C9) small molecule antagonists: luciferase biochemical (cell-free) qHTS assay (AID 1645842); also: nearly all actives have a fitted effect of over 55% in size
measurement-context: P450-Glo CYP2C9 enzyme assay, luciferin luminescence; series mostly up to 57.4 µM
Results filed as inconclusive are left out. Active and inactive are the calls of the source. The call rests on the fitted dose curve; in most records, active means well fitted inhibition curve with a large enough effect in the repeat runs; inconclusive means weak or mixed curves; inactive means no such curve, though single readings can be large or run the other way.
Labels: active, inactive

>>> discrete_label("CCN1CCN(CCCNC(=O)c2cc3c(s2)-c2c(C)cccc2OC3)CC1")
"inactive"
>>> discrete_label("Cc1ccc(Cn2c(Cc3ccccc3)nc3ccccc32)cc1")
"active"
>>> discrete_label("COc1ccc(-n2ccn(CC(=O)Nc3ccc(C)c(C)c3)c(=O)c2=O)cc1OC")
"inactive"
>>> discrete_label("Cc1cc(C)c(Cn2c3ccccc3c3cnn(CC(=O)NCc4ccccn4)c(=O)c32)c(C)c1")
"active"
>>> discrete_label("COc1ccc(CCNc2nc(SCc3ccccc3Cl)nc3ccccc23)cc1OC")
"active"
>>> discrete_label("O=C(CSc1nc2ccccc2n1Cc1cccc(F)c1)N1CCN(c2ccc(F)cc2)CC1")
"active"
>>> discrete_label("O=C(CSc1nnc(-c2cccc(F)c2)c(-c2cccc(F)c2)n1)NC1CCCCC1")
"active"
>>> discrete_label("Cc1ccccc1CNC(=O)CCCn1c(=O)c2cccn2c2ccccc21")
"active"
>>> discrete_label("CC1(C)C(/C=C/C=C/C=C/C=C2/N(CCCCS(=O)(=O)O)c3ccc4ccccc4c3C2(C)C)=[N+](CCCCS(=O)(=O)[O-])c2ccc3ccccc3c21")
"active"
>>> discrete_label("C=Cc1ccc(Cn2c(SCC(=O)N3CCN(c4ccc(F)cc4)CC3)nc3ccccc32)cc1")
"active"
>>> discrete_label("COc1ccc(Cn2c(SCC(=O)N3CCN(c4ccc(F)cc4)CC3)nc3ccccc32)cc1")
"active"
>>> discrete_label("Cc1nc2c3ccccc3nc(NNC(=O)CCC(=O)N3CCN(c4cccc(Cl)c4)CC3)n2n1")
"active"
>>> discrete_label("Cc1ccccc1-n1c(SCc2ccc(Cl)cc2)nc2[nH]ncc2c1=O")
"active"
>>> discrete_label("COc1cc(Cl)c(C)cc1NC(=O)CSc1ncc(S(=O)(=O)c2ccc(C(C)(C)C)cc2)c(=O)[nH]1")
"active"
>>> discrete_label("Cc1ccc(Cn2c(SCc3ccc(C(=O)N4CCCCCC4)cc3)nc3ccncc32)cc1")
"inactive"
>>> discrete_label("COc1ccc(NC(=O)C2CCCN(c3nnc(C)c4c(C)n(-c5ccccc5)nc34)C2)cc1Cl (stereo not drawn)")
"active"
>>> discrete_label("COc1ccc(NC(=O)c2nc(SCc3ccc(F)cc3)ncc2Cl)cc1")
"active"
>>> discrete_label("COc1ccc(NC(=O)CSc2nc(-c3cccs3)cc(C(F)(F)F)n2)cc1OC")
"inactive"
>>> discrete_label("Cc1ccc(Cn2ccnc2SCC(=O)Nc2nc3ccccc3s2)cc1")
"active"
>>> discrete_label("COc1ccc(CC(=O)Nc2c(C(=O)N3CCN(c4ccccc4F)CC3)oc3ccccc23)cc1OC")
"inactive"
>>> discrete_label("Nc1nc(NC2CC2)c2ncn([C@H]3C=C[C@@H](CO)C3)c2n1")
"inactive"
>>> discrete_label("CC1=C(C(=O)Nc2cccc(CN)c2)C(c2ccccc2Cl)N=C(Nc2nc3ccccc3o2)N1 (stereo not drawn)")
"active"
>>> discrete_label("CC1(C#N)CCN(c2c(C(=O)N3CCC(S(C)(=O)=O)CC3)cnc3cc(F)c(F)cc23)CC1")
"inactive"
>>> discrete_label("CCCCn1cnc2cc(NCc3ccccc3Cl)ccc21")
"active"
>>> discrete_label("CC1=C(C(=O)NCc2cncn2C)C(c2ccccc2Cl)N=C(Nc2nc3ccccc3o2)N1 (stereo not drawn)")
"active"
>>> discrete_label("CC(=O)c1ccc(NC(=O)C2CCN(c3nnc(C)c4c(C)n(-c5ccccc5)nc34)CC2)cc1")
"active"
>>> discrete_label("CN(C)[S+](=O)([O-])c1ccc([S+](=O)([O-])N(Cc2cccs2)Cc2ccccc2Cl)cc1")
"active"
>>> discrete_label("CCOc1ccccc1CNC(=O)C1CCN(S(=O)(=O)c2c(C)noc2/C=C/c2ccccc2F)CC1")
"active"
>>> discrete_label("COc1ccc(Cn2c(CCC(=O)Nc3cccc(OC)c3)nc3cccnc32)cc1")
"active"
>>> discrete_label("CCOc1cc(CNC(=O)c2ccc(C)c(NC(=O)c3nsc4ccccc34)c2)ccc1OC")
"active"
>>> discrete_label("CCNC(=O)N1CCN(C(=O)c2cnc3cc(OC)ccc3c2N2CCC(C)(C#N)CC2)CC1")
"active"
>>> discrete_label("CCOC(=O)c1nnc(NC(=O)C2=C(C)NC(Nc3nc4ccccc4o3)=NC2c2ccccc2Cl)s1 (stereo not drawn)")
"active"
>>> discrete_label("Cc1c(Cl)cccc1NC(=O)Cn1cc(C(=O)C2CCCCC2)c2ccccc21")
"active"
>>> discrete_label("Cc1cccn2c(=O)c3cc(C#N)c(=O)n(-c4nnc(SCc5ccc(Cl)cc5)s4)c3nc12")
"active"
>>> discrete_label("Cc1ccc(OCC(=O)Nc2cccc(OCc3cc(=O)n4cccc(C)c4n3)c2)cc1C")
"active"
>>> discrete_label("COC(=O)c1cnc(N2CCN(c3ccc(OC)cc3)CC2)c2ccccc12")
"active"
>>> discrete_label("Cc1ccc(S(=O)(=O)N2CCc3cc(C(=O)Nc4ccc(C(F)(F)F)cc4)ccc32)cc1")
"active"
>>> discrete_label("COc1ccccc1NC(=O)c1oc2ccccc2c1NC(=O)c1ccccc1C(F)(F)F")
"active"

====

Test system: CP260
test: qHTS profiling for inhibitors of Plasmodium falciparum proliferation (AID 504749); also: nearly all actives have a fitted effect of over 60% in size
measurement-context: P. falciparum in erythrocytes, SYBR Green DNA, 72 h; series mostly up to 12.8 µM
Protocol: NIH National Institute of Allergy and Infectious Diseases [NIAID] NIH Chemical Genomics Center [NCGC] […] Because mature erythrocytes lack DNA, only Plasmodium-derived DNA is detected. NCGC Assay Protocol Summary: The SYBR Green viability assay was adapted from a method described previously (Plouffe et al., 2008). […] The following morning, fluorescence intensity at 485(14) nm excitation and 535(25) nm emission wavelengths was measured on an EnVision (Perkin Elmer) plate reader. […]
Records with an inconclusive call do not appear. Activity calls are given as the source filed them. Calls come from the whole dose curve; as a rule, active = well fitted inhibition curve with a large enough effect; inconclusive = small, poorly fitted or top-dose-only effect; inactive = flat fitted curve, though single readings scatter.
Labels: active, inactive

>>> discrete_label("CC[C@@]12CCCN3CCc4c(n(c5ccccc45)[C@](O)(C(=O)OC)C1)C32 (stereo partly drawn)")
"inactive"
>>> discrete_label("CC(=O)N(C[C@@H](C)C(=O)O)c1c(I)cc(I)c(N)c1I")
"inactive"
>>> discrete_label("NC[C@@H]1O[C@H](O[C@H]2[C@H](O)[C@H](O[C@@H]3O[C@H](CO)[C@@H](O)[C@H](N)[C@@H]3O)[C@@H](N)C[C@H]2N)[C@@H](O)[C@H](O)[C@@H]1O")
"inactive"
>>> discrete_label("COc1cc(C2c3cc4c(cc3C(O[C@@H]3OC5COC(c6cccs6)OC5C(O)C3O)C3COC(=O)C23)OCO4)cc(OC)c1O (stereo partly drawn)")
"active"
>>> discrete_label("NCC1CCC(N)C(O[C@@H]2C(O)[C@H](O[C@H]3OC(CO)C(O)C(N)C3O)[C@@H](N)C[C@H]2N)O1 (stereo partly drawn)")
"inactive"
>>> discrete_label("CCN[C@@H]1CN(CCCOC)S(=O)(=O)c2sc(S(N)(=O)=O)cc21")
"inactive"
>>> discrete_label("O[C@@](CCN1CCCC1)(c1ccccc1)C1CCCCC1")
"inactive"
>>> discrete_label("COCC(=O)Nc1c(I)c(C(=O)NC[C@@H](O)CO)c(I)c(C(=O)N(C)C[C@@H](O)CO)c1I")
"inactive"
